# merged literature set: IC50 with the protein given by its sequence
Target protein (sequence): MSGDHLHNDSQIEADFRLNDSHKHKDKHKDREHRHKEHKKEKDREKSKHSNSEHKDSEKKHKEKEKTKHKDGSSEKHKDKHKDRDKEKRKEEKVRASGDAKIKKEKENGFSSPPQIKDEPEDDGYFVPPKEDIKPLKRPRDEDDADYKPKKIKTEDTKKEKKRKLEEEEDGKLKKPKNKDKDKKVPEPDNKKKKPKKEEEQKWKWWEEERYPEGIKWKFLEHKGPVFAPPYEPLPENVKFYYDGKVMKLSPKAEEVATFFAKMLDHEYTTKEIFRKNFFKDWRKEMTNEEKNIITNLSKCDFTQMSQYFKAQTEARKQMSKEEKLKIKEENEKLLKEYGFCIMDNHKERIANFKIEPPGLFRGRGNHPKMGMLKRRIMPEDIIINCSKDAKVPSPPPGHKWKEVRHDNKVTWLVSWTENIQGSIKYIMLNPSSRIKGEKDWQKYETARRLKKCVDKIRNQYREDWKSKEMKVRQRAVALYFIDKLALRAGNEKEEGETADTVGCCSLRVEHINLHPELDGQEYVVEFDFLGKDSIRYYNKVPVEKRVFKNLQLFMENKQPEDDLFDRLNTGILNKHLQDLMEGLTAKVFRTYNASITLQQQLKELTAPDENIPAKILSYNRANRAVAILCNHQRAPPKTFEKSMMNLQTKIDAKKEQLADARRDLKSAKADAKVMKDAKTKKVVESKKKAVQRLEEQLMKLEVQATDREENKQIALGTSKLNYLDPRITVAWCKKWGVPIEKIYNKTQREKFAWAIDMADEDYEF
Property name: IC50 (µM)

- Input smiles: "Fc1ccc(C[n+]2ccc3ccnc4c3c2-c2ccccc2-4)cc1.[Br-]"
  IC50, µM: 127
- Input smiles: "COC(=O)c1cn(Cc2ccc(-c3ccccc3)cc2)c2c(OC)c(N3CC[C@@H](CN)C3)c(F)cc2c1=O"
  IC50, µM: 71.4

a. O=C(O)c1cn(Cc2ccc(-n3cccn3)cc2)c2cc(N3C[C@H]4CCNC[C@H]4C3)c(F)cc2c1=O
b. CNC[C@@H]1CCN(c2cc3c(cc2F)c(=O)c(C(=O)O)cn3Cc2ccc(-c3ccccc3)cc2)C1
c. O=C1C(O)=C(C(C2=C(O)C(=O)c3ccccc3C2=O)c2ccc(C(C3=C(O)C(=O)c4ccccc4C3=O)C3=C(O)C(=O)c4ccccc4C3=O)cc2)C(=O)c2ccccc21
d. CC(=O)Oc1ccc(C(=O)Nc2ccccc2NC(=O)c2ccc(OC(C)=O)c(OC(C)=O)c2)cc1OC(C)=O
Data request: Hey, can you sort those compounds up there by IC50, smallest first? Response format: the labels, sorted as the prompt asks.
Data returned: a, c, d, b

---

pIC50 for DNA topoisomerase 1 (Homo sapiens) - collated from the literature.
Molecular target: DNA topoisomerase 1 (Homo sapiens)
Sequence (P11387 whole entry): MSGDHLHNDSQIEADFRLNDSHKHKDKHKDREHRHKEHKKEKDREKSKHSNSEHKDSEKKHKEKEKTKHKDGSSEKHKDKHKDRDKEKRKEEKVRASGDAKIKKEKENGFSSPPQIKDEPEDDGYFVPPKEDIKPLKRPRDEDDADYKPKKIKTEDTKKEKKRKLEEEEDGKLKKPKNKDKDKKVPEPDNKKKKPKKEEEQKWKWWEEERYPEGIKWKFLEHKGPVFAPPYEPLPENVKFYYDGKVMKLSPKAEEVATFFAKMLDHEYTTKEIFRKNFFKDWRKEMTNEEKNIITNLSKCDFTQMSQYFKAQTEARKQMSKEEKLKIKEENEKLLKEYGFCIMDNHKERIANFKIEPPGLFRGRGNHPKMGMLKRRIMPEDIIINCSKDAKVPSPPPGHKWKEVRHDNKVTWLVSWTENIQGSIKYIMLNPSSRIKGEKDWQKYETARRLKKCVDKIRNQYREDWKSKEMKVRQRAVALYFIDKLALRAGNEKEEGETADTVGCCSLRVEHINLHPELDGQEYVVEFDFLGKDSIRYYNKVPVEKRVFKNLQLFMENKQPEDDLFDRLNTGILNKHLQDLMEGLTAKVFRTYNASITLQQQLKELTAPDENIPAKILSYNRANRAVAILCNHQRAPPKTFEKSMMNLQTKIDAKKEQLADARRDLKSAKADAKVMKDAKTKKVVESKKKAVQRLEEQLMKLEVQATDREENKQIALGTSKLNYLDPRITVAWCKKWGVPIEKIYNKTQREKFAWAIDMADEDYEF
pIC50: −log10 of the molar value.
Property name: pIC50

Solved cases below.
- Input smiles: "NC[C@@H]1CCN(c2cc3c(cc2F)c(=O)c(C(=O)O)cn3Cc2ccc(-n3cccn3)cc2)C1"
  pIC50: 4.04
- Input smiles: "CN[C@@H]1CCN(c2c(F)cc3c(=O)c(C(=O)O)cn(Cc4ccc(-c5ccccc5)cc4)c3c2OC)C1"
  pIC50: 4.24
- Input smiles: "COc1c(N2CC[C@@H](N)C2)c(F)cc2c(=O)c(C(=O)O)cn(Cc3ccc(-c4ccc(F)cc4)cc3)c12"
  pIC50: 4.23

a. O=C(Nc1cccc(NC(=O)c2ccc(O)c(O)c2)c1)c1ccc(O)c(O)c1
b. Cc1cc2cc[n+](Cc3ccccc3)c3c2c(n1)-c1ccccc1-3.[Br-]
Data request: Quick check, higher pIC50 between a and b ? Identify your selection by its label.
Data returned: a
